Data provenance is ChEMBL document CHEMBL1961873.

For each of the compounds below, state its inhibition.
- Assayed Target: cGMP-dependent protein kinase 1 (Homo sapiens)
- Assay Conditions: at 0.1 µM
- Description: GSK_PKIS: PRKG1 mean inhibition at 0.1 uM [Nanosyn]
Entry rule: numbers only, all in %.

[in] For the compound "COC(=O)Nc1nc2cc(Oc3ccc(NC(=O)Nc4ccccc4)cc3)ccc2[nH]1" , what inhibition is on record?
[out] 0.72

[in] Also "CNC(=O)c1cncc(/C=C/c2ccccc2C)c1" , if possible.
[out] 4.05

[in] Also "CS(=O)(=O)CCNCc1ccoc1-c1ccc2ncnc(Nc3ccc(OCc4ccccc4)cc3)c2c1" , if possible.
[out] -0.04

[in] Also "OCCCNc1nccc(-c2c(-c3ccc(F)cc3)nn3cc(C(F)(F)F)ccc23)n1" , if possible.
[out] 1.52

[in] Also "O=C(Nc1n[nH]c2nnc(-c3cccnc3)cc12)C1CC1" , if possible.
[out] -0.91

[in] Also "COc1cc(N2CCN(C(C)C)CC2)ccc1Nc1nc(Nc2cccc(F)c2C(=O)O)c2cc[nH]c2n1" , if possible.
[out] 1.6

[in] Also "CC(C)c1ccc(-c2cc(-c3c[nH]nc3-c3ccccn3)ccn2)cc1" , if possible.
[out] 2.03

[in] Also "CCOc1ccc2c(-c3ccnc(Nc4cc(OC)cc(C(F)(F)F)c4)n3)cnn2n1" , if possible.
[out] 0.85

[in] Also "CCS(=O)(=O)c1ccc(OC)c(Nc2ncc(-c3cccc(F)c3)o2)c1" , if possible.
[out] 4.88

[in] Also "CNC(=O)c1ncccc1Nc1nc(Nc2cc3c(cc2OC)CCCN3C(=O)CN(C)C)nc2[nH]ccc12" , if possible.
[out] 1.9

[in] Also "CCS(=O)(=O)c1ccc(OC)c(Nc2ncc(-c3cccc(C(C)=O)c3)o2)c1" , if possible.
[out] 1.67

[in] Also "COc1ccc(Nc2ncc(-c3ccccc3)o2)cc1OC" , if possible.
[out] 0.71

[in] Also "Fc1ccc(Nc2nccc(-c3c(-c4ccc(C(F)(F)F)cc4)nn4ncccc34)n2)cc1F" , if possible.
[out] 2.4

[in] Also "NS(=O)(=O)c1cccc(N/C=C2\C(=O)Nc3ccccc32)c1" , if possible.
[out] 3.34

[in] Also "CCn1c(-c2nonc2N)nc2cncc(C(=O)NCCNC)c21" , if possible.
[out] 36.2

[in] Also "O=C(O[C@H]1CN[C@H](C#Cc2cc3ncnc(Nc4ccc5c(cnn5Cc5ccccc5)c4)c3s2)C1)N1CCOCC1" , if possible.
[out] -0.48

[in] Also "CNC(=O)c1sc(-n2cnc3cc(OC)c(OC)cc32)cc1OCc1ccccc1C(F)(F)F" , if possible.
[out] 2.58

[in] Also "COC(=O)Nc1nc2ccc(Oc3ccc(NC(=O)Nc4cc(C(F)(F)F)ccc4F)cc3)cc2s1" , if possible.
[out] 1.65

[in] Also "COc1ccccc1-c1cc(/C=C2\C(=O)Nc3ncc(Br)cc32)cc(Br)c1O" , if possible.
[out] 2.01

[in] Also "FC(F)(F)CNc1nccc(-c2cnn3ncccc23)n1" , if possible.
[out] 1.02

[in] Also "CN(C)CCNC(=O)Nc1ccc(N(C)c2ccnc(Nc3ccc(CS(C)(=O)=O)cc3)n2)cc1" , if possible.
[out] 3.82

[in] Also "CS(=O)(=O)CCNCc1ccc(-c2ccc3ncnc(Nc4ccc(OCc5ccccc5)cc4)c3c2)o1" , if possible.
[out] 2.37
